target: TNPO3 C511A (Homo sapiens, UniProt Q9Y5L0, C511A); construct: full-length (FL) WT human TNPO3 were generated by synthesizing codon-optimized DNA fragments; His6 (N, cleaved yes); protein A (N, cleaved yes); made in house; host or cells: Escherichia coli BL21-(DE3) Star; test: ITC, ligand titrated into TNPO3 C511A; format: binding; conditions: TNPO3 C511A, two replicates
Sequence (Q9Y5L0 whole entry C511A, the tested form may be a part): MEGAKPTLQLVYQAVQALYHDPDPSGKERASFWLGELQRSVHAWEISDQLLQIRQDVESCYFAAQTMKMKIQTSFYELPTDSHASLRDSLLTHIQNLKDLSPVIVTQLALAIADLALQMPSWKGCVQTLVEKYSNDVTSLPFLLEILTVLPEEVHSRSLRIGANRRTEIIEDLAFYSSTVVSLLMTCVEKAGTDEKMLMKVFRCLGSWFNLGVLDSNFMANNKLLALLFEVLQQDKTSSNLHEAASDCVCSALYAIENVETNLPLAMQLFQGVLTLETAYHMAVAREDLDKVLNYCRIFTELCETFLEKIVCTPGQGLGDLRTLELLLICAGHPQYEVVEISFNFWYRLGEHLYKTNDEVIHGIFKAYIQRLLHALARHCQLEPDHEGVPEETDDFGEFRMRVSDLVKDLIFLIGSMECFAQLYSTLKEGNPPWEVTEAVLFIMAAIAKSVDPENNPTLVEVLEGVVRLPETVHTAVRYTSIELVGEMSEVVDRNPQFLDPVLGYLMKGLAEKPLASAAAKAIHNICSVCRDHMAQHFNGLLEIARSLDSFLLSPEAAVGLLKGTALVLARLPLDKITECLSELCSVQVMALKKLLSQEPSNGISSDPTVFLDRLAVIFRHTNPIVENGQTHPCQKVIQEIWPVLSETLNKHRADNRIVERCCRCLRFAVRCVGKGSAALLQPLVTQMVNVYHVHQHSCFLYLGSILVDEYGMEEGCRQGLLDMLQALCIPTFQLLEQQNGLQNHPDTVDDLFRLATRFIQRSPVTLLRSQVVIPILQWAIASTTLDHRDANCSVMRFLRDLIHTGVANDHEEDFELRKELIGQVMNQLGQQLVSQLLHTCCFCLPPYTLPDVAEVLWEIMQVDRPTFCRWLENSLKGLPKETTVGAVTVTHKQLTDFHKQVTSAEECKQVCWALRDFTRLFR
Property Name: TNPO3 binding Kd, outcome in words

GGSYADSYDSYATHNE [CIRBP (157-172) R161A, synthetic CIRBP (157-172) peptide with point mutation R161A] = No binding
GGSYRDSADSYATHNE [CIRBP (157-172) Y164A, synthetic CIRBP (157-172) peptide with point mutation Y164A] = No binding

Data credit: paper PMC12075686
